Experiment: Apparent permeability across apical to basolateral side in MDCK-II cells at 1 uM incubated for 2 hrs by LC-MS/MS analysis
Type: ADME, cell-based, Canis lupus familiaris
Conditions: dog
ENDPOINT NAME: Papp A→B at 2 h, 1 µM (×10⁻⁶ cm/s)

Here are 5 compounds together with their reported answers.
INSERT INTO results (chem_smiles, units, obs_value) VALUES
  ('C=CC(=O)N1CCC[C@@H](n2nc(-c3ccc(Oc4ccc5c(c4)ncn5C)c(C)c3)c3c(N)ncnc32)C1', '×10⁻⁶ cm/s', 10.9),
  ('C=CC(=O)N1[C@@H]2CC[C@H]1C[C@@H](n1nc(-c3cc(C)c(Oc4ccc5c(c4)ncn5C)c(F)c3)c3c(C)ncnc31)C2', '×10⁻⁶ cm/s', 11.6),
  ('C=CC(=O)N1CCC[C@@H](n2nc(-c3ccc(Oc4ccc5c(c4)ncn5C)c(C)c3)c3c(C)ncnc32)C1', '×10⁻⁶ cm/s', 14.7),
  ('C=CC(=O)N1CC2(n3nc(-c4ccc(Oc5ccc6c(c5)ncn6C)c(C)c4)c4c(C)ncnc43)CC1C2', '×10⁻⁶ cm/s', 11.4),
  ('C=CC(=O)N1[C@@H]2CC[C@H]1C[C@@H](n1nc(-c3ccc(Oc4ccc5c(c4)ncn5C)c(C)c3)c3c(C)ncnc31)C2', '×10⁻⁶ cm/s', 12);

A = C=CC(=O)N1CCC[C@@H](n2nc(-c3ccc(Oc4ccc5c(c4)ncn5C)c(C)c3)c3cncnc32)C1
B = C=CC(=O)N1[C@@H]2CC[C@H]1C[C@@H](n1nc(-c3cc(F)c(Oc4ccc5c(c4)ncn5C)c(Cl)c3)c3c(C)ncnc31)C2
Exercise: Which is greater in Papp A→B at 2 h, 1 µM, the first item A or the second item B ? Identify your selection by its label.
Solution: A

----------
Experiment: Half life in CD-1 mouse at 1 mg/kg, iv by LC-MS/MS analysis
Assay type: ADME, organism-based
Details: in vivo
ENDPOINT NAME: half-life (h)

1 = C=CC(=O)N1[C@@H]2CC[C@H]1C[C@@H](n1nc(-c3ccc(Oc4ccc5c(c4)ncn5C)c(C)c3)c3c(C)ncnc31)C2
2 = C=CC(=O)N1[C@@H]2CC[C@H]1C[C@@H](n1nc(-c3cc(F)c(Oc4ccc5c(c4)ncn5C)c(Cl)c3)c3c(C)ncnc31)C2
Exercise: Hello, I am sorting some records. Could you say if 1 or 2 has the smaller half-life value? # answer = label of selected item
Solution: 1
